# Tested on: HT29 colon
# TEST: NCI-60 one-dose screen, 48 h (100 = growth as untreated, 0 = no growth, -100 = all killed)
# PARTICULARS: 10 µM unless noted
This is part of a sample that, as a whole, favours compounds with a hit. Of some 83,000 tested, about 20% had one in any assay.
RECORDED METRIC: growth (%)
Write the value in % as a bare number.

- CHEMICAL STRUCTURE: "O=C1C(=O)c2ccc(Br)cc2-c2cc(Br)ccc21"
  UNIT OF MEASUREMENT: "%"
  growth: 105
- CHEMICAL STRUCTURE: "COc1cccc(-c2nnc(N)o2)c1"
  UNIT OF MEASUREMENT: "%"
  growth: 100

Recall and state the measured growth for CSC1=Nc2c(c(C)c(-c3ccccc3)n2CCCN2CCCCC2)C2=NC(=O)C[C@H](C)N12 .
21.4

Recall and state the measured growth for O=C(C=C=Nc1ccccc1)C(=O)N=C=Cc1ccccc1 .
52.1

Recall and state the measured growth for Cc1cc(C(C)(C)C)cc(C)c1CC1=NCCN1 .
105

Recall and state the measured growth for COc1cc(/C=C/C(=O)Nc2ccc3c(c2)/C(=C\c2cccn2C)C(=O)N3)cc(OC)c1OC .
53.9
